species on record: Rattus norvegicus; assay: Inhibition of rat recombinant geranylgeranyltransferase type I expressed in Escherichia coli assessed as residual enzyme activity for geranylgeranylation of K-Ras4B at 50 uM incubated for 30 mins in presence of [3H]GGPP by scintillation counting assay relative to control
recorded metric: Activity (%)

[[record]]
input_smiles = "COc1ccc([C@@H]2CC=C(C(=O)O)[C@H](c3cccc(F)c3)N2S(=O)(=O)c2ccc(C)cc2)cc1"
recorded_metric = "Activity"
reading = 87.5


[A] COc1ccc([C@@H]2CC=C(C(=O)O)[C@H](c3cccc(Cl)c3)N2S(=O)(=O)c2ccc(C)cc2)cc1OC
[B] CCc1ccc([C@@H]2CC=C(C(=O)O)[C@H](c3cccc(F)c3)N2S(=O)(=O)c2ccc(C)cc2)cc1
Query: Which entry has a larger number for Activity, A or B ? Write down the label of the entry you select.
Result: A
(A: 87.8%, B: 55%)

----------
species: Rattus norvegicus; test: Inhibition of rat recombinant geranylgeranyltransferase type I expressed in Escherichia coli assessed as residual enzyme activity for geranylgeranylation of K-Ras4B at 50 uM incubated for 30 mins in presence of [3H]GGPP by scintillation counting assay relative to control
recorded metric: Activity (%)

Would you please look over these solved cases?
[[record]]
input_smiles = "COc1ccc([C@@H]2CC=C(C(=O)O)[C@H](c3cccc(C)c3)N2S(=O)(=O)c2ccccc2)cc1"
reading = 72.6

[[record]]
input_smiles = "CCCCS[C@@H]1C[C@@H](c2cccc(OC)c2)N(S(=O)(=O)c2ccc(C)cc2)C[C@H]1C(=O)O"
reading = 83.9

[[record]]
input_smiles = "Cc1ccc(S(=O)(=O)N2[C@@H](c3cccc(Cl)c3)C(C(=O)O)=CC[C@H]2c2cccc(F)c2)cc1"
reading = 62.3

[[record]]
input_smiles = "CCCCCCS[C@@H]1C[C@@H](c2ccc(OC)c(OC)c2)N(S(=O)(=O)c2ccc(C)cc2)C[C@H]1C(=O)O"
reading = 97.2

[[record]]
input_smiles = "Cc1ccc(S(=O)(=O)N2[C@@H](c3cccc(Br)c3)C(C(=O)O)=CC[C@H]2c2ccc3c(c2)OCO3)cc1"
reading = 75.1


[I] COc1cc([C@@H]2C[C@@H](Sc3ccccc3)[C@H](C(=O)O)CN2S(=O)(=O)c2ccc(C)cc2)cc(OC)c1OC
[II] Cc1ccc(S(=O)(=O)N2[C@@H](c3ccc(C(C)(C)C)cc3)C(C(=O)O)=CC[C@H]2c2cccc(C)c2)cc1
Query: // which entry reports the smaller Activity, I or II ? Label of pick, please.
Result: II

----------
species: Rattus norvegicus; experiment: Inhibition of rat recombinant geranylgeranyltransferase type I expressed in Escherichia coli assessed as residual enzyme activity for geranylgeranylation of RhoA at 50 uM incubated for 30 mins in presence of [3H]GGPP by scintillation counting assay relative to control
recorded metric: Activity (%)

These solved cases illustrate the format of a correct answer.
[[record]]
input_smiles = "Cc1ccc([C@@H]2C[C@@H](SCCc3ccccc3)[C@H](C(=O)O)CN2S(=O)(=O)c2ccc(Cl)cc2)cc1"
unit_spec = "%"
reading = 9.5

[[record]]
input_smiles = "Cc1ccccc1S(=O)(=O)N1C[C@@H](C(=O)O)[C@H](SCc2ccccc2)C[C@H]1c1ccc(Cl)cc1"
unit_spec = "%"
reading = 7.8


[A] Cc1ccc(S(=O)(=O)N2C[C@@H](C(=O)O)[C@H](Sc3ccccc3)C[C@H]2c2cccc(Br)c2)cc1
[B] CCC[C@@H]1[C@@H](SCCC(=O)OC(C)(C)C)[C@@H](C(=O)O)[C@H](c2cccc(F)c2)N1S(=O)(=O)c1ccc(C)cc1
[C] Cc1ccc(S(=O)(=O)N2C[C@@H](C(=O)O)[C@H](Sc3ccccc3)C[C@H]2c2ccc(Cl)cc2)cc1
Query: Hey, quick one: sort these by Activity, largest value first please. Answer format: the labels, ordered as requested.
Result: B, C, A

[I] Cc1ccc(S(=O)(=O)N2C[C@@H](C(=O)O)[C@H](SCc3ccc(Cl)cc3)C[C@H]2c2cccc(Br)c2)cc1
[II] Cc1ccc(S(=O)(=O)N2C[C@@H](C(=O)O)[C@H](SCc3ccc(Cl)cc3)C[C@H]2c2cccc(Cl)c2)cc1
Query: Pick one: I or II . Which has the bigger Activity number? Respond with the label that goes with your answer.
Result: II
(II: 6%, I: 3.2%)

The measurements presented in this section are drawn from ChEMBL document CHEMBL4421722.
